Tested on: SK-BR-3
assay_procedure: The IC50 value was measured on human breast cancer cell line SK-BR-3.
Assay type: functional, cell-based
outcome_measure: IC50 (µM)

Consider the following illustrative entries.
>  <compound>
CCOC(=O)c1nc(-c2cn(C)c3c2C(=O)C(OC)=CC3=O)cs1

>  <system_under_test>
SK-BR-3

>  <unit_of_measurement>
µM

>  <recorded_number>
16.9

$$$$
>  <compound>
O=C1c2c(O)ccc(O)c2C(=O)c2c(NCCNCCO)ccc(NCCNCCO)c21 [MITOXANTRONE]

>  <system_under_test>
SK-BR-3

>  <unit_of_measurement>
µM

>  <recorded_number>
0.016

$$$$
>  <compound>
Cn1cc(-c2csc(C(N)=O)n2)c2c1C(=O)C=C(N)C2=O

>  <system_under_test>
SK-BR-3

>  <unit_of_measurement>
µM

>  <recorded_number>
4.1

$$$$
>  <compound>
Cc1csc(-c2cn(C)c3c2C(=O)C(=N)C=C3O)n1

>  <system_under_test>
SK-BR-3

>  <unit_of_measurement>
µM

>  <recorded_number>
0.73

$$$$
>  <compound>
CCOC(=O)c1csc(-c2cn(C)c3c2C(=O)C(OC)=CC3=O)n1

>  <system_under_test>
SK-BR-3

>  <unit_of_measurement>
µM

>  <recorded_number>
27.8

$$$$
>  <compound>
CCOC(=O)c1coc(-c2cn(C)c3c2C(=O)C(OC)=CC3=O)n1

>  <system_under_test>
SK-BR-3

>  <unit_of_measurement>
µM

>  <recorded_number>
4.8

$$$$

I: Cn1cc(-c2nc(C(N)=O)cs2)c2c1C(=O)C=C(N)C2=O
II: COC1=CC(=O)c2c(c(-c3nc(C)cs3)cn2C)C1=O
Please tell me which of the two, I or II , has the higher reported IC50 value. # reply format: chosen label
I
(I: 8.7 µM, II: 1.4 µM)
